Tested on: Mast/stem cell growth factor receptor Kit (Homo sapiens), P10721 [V560G]
Sequence (P10721 whole entry V560G): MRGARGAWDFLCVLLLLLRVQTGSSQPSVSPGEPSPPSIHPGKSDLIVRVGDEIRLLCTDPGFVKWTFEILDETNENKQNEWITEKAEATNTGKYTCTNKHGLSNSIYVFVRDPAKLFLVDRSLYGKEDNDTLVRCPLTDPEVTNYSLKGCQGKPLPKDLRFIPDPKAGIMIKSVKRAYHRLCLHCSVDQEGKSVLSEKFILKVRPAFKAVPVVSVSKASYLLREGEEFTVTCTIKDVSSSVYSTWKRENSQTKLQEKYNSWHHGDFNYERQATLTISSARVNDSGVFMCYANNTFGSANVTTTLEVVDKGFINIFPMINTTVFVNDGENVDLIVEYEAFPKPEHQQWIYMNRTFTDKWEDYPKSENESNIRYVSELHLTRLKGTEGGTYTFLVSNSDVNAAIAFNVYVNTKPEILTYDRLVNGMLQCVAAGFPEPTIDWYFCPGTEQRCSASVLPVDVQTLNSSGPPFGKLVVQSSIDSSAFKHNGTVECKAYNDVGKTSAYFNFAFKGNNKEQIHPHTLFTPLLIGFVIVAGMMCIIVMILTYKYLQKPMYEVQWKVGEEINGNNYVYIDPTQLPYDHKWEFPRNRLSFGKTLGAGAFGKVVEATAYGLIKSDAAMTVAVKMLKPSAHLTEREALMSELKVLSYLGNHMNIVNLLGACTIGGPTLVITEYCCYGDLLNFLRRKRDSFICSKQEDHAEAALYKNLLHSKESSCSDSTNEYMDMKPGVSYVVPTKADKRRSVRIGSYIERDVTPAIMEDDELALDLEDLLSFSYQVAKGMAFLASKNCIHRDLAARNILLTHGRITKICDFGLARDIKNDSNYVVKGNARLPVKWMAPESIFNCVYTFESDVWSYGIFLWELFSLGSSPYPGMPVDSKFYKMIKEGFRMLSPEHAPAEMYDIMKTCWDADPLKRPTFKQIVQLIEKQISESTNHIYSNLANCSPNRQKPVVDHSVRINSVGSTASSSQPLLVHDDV
details: at 0.1 µM

smiles: Cc1ccc(C(=O)NC2CCCCC2)cc1-c1ccc(C(=O)NCC2CC2)cc1
target-desc: Mast/stem cell growth factor receptor Kit (Homo sapiens), P10721 [V560G]
inhibition / %: 3.05

smiles: COc1ccc(-c2coc3ncnc(N)c23)cc1
target-desc: Mast/stem cell growth factor receptor Kit (Homo sapiens), P10721 [V560G]
inhibition / %: 2.72

smiles: CS(=O)(=O)CCN(CC#N)Cc1ccc(-c2ccc3ncnc(Nc4ccc(OCc5cccc(F)c5)c(Cl)c4)c3c2)o1
target-desc: Mast/stem cell growth factor receptor Kit (Homo sapiens), P10721 [V560G]
inhibition / %: -0.55

smiles: COc1ccc(COc2ccc(Cc3cnc(N)nc3N)cc2OC)cc1
target-desc: Mast/stem cell growth factor receptor Kit (Homo sapiens), P10721 [V560G]
inhibition / %: 5.62

smiles: Nc1ncnc2occ(-c3ccc(NC(=O)Nc4cccc(C(F)(F)F)c4)cc3)c12
target-desc: Mast/stem cell growth factor receptor Kit (Homo sapiens), P10721 [V560G]
inhibition / %: 104

smiles: O=C1NC(=O)C(c2ccc(Cl)cc2)=C1Nc1ccc(Cl)c(C(=O)O)c1
target-desc: Mast/stem cell growth factor receptor Kit (Homo sapiens), P10721 [V560G]
inhibition / %: 2.75

smiles: NS(=O)(=O)c1ccc(N/N=C2\C(=O)Nc3ccc(C(=O)NCCc4c[nH]cn4)cc32)cc1
target-desc: Mast/stem cell growth factor receptor Kit (Homo sapiens), P10721 [V560G]
inhibition / %: -1.9

smiles: CS(=O)(=O)CCNCc1ccc(-c2ccc3ncnc(Nc4ccc(OCc5cccc(F)c5)c(C(F)(F)F)c4)c3c2)o1
target-desc: Mast/stem cell growth factor receptor Kit (Homo sapiens), P10721 [V560G]
inhibition / %: -3.52

smiles: CS(=O)(=O)Nc1ccc(N/C=C2\C(=O)Nc3ccccc32)cc1
target-desc: Mast/stem cell growth factor receptor Kit (Homo sapiens), P10721 [V560G]
inhibition / %: 4.08

smiles: COc1cc(C=NNc2ncnc3c2cnn3-c2ccccc2)ccc1O
target-desc: Mast/stem cell growth factor receptor Kit (Homo sapiens), P10721 [V560G]
inhibition / %: 8.24
